# target-system: hmGluR5a receptor (Homo sapiens (Human))
# assay-protocol: Calcium Flux Assay
# Format: cell-based
# condition-set: hmGluR5a/L38-20 cells, glutamate-evoked [Ca2+]i
pIC50: −log10 of the molar value.
measured-metric: pIC50

Some compounds with known pIC50 results, for comparison:
Cc1nc(C#Cc2ccc(-c3ccc(F)cc3)nc2)cs1 [Example 46]	7.96
Cc1nc(C#Cc2ccc(-c3cccc(C#N)c3)nc2)cs1 [Example 70]	8.30
Cc1nc(C#Cc2ccc(-c3ccccc3C#N)nc2)cs1 [Example 4]	8.66

I: Cc1nc(C#Cc2cncc(Cl)c2)cs1 [Example 90]
II: Cc1nc(C#Cc2ccc(-c3cccc(C(F)(F)F)c3)nc2)cs1 [Example 77]
Task: Which value of pIC50 is numerically greater: that of I or that of II ? Your answer should be the label of the entry you select.
Result: I

a: Cc1nc(C#Cc2cnc(NC(C)(C)C)nc2)cs1 [Example 22]
b: Cc1nc(C#Cc2cncc(-c3cccc(Cl)c3)c2)cs1 [Example 43]
c: Cc1nc(C#Cc2cncc(CCc3ccccc3)c2)cs1 [Example 67]
Task: rank_up(items): orders items by reported pIC50 in ascending numerical order. Lab note: final answer is the ordered label list.
Result: b, c, a

* * *

# target-system: hmGluR5a receptor (Homo sapiens (Human))
# assay-protocol: Calcium Flux Assay
# condition-set: hmGluR5a/L38-20 cells, glutamate-evoked [Ca2+]i
Counter-ions that a name gives are not always drawn.
measured-metric: IC50 (nM)

Use these answered entries as a reference point.
Cc1nc(C#Cc2cnc(N3CCCC(CO)C3)nc2)cs1 (stereo not shown)	12
COc1cc(F)ccc1-c1ccc(C#Cc2csc(C)n2)cn1 [Example 11, trifluoroacetate]	1.3
Cc1nc(C#Cc2cncc(C3CC3)c2)cs1	3.5
Cc1nc(C#Cc2ccc(-n3ccc4ccccc43)nc2)cs1	13
Cc1nc(C#Cc2cnc(N3CCCC(C)C3)nc2)cs1 (stereo not shown)	1.6

I: CCc1ccccc1-c1ccc(C#Cc2csc(C)n2)cn1
II: Cc1nc(C#Cc2ccc(C(C)(C)C)nc2)cs1
Task: Lab note: check whether I or II shows the higher recorded IC50. State the label of the item chosen.
Result: I
(I: 7 nM, II: 2.9 nM)

1: Cc1nc(C#Cc2ccc(-c3ccccc3CO)nc2)cs1
2: Cc1nc(C#Cc2ccc(N3C(C)CCC3C)nc2)cs1 (stereo not shown)
Task: Compare the recorded IC50 of 1 and 2 ; state which is larger. Answer format: the label of the selected item.
Result: 1

A: COc1cccc(-c2ccc(C#Cc3csc(C)n3)cn2)c1F
B: Cc1nc(C#Cc2ccc(-n3ccc4cccnc43)nc2)cs1
Task: Param pair: A , B . Output: the one whose IC50 is numerically greater. Respond using the label that marks the chosen record.
Result: A
(A: 8 nM, B: 0.4 nM)

P: Cc1nc(C#Cc2ccc(Oc3ccccc3)nc2)cs1
Q: Cc1nc(C#Cc2cncc(-c3ccc(CO)cc3)c2)cs1
R: Cc1nc(C#Cc2ccc(NC3CCC3)nc2)cs1
Task: Rank descending by IC50. Reply with the item labels sorted in the order that was asked for.
Result: R, Q, P

a: Cc1ccc(F)c(-c2ccc(C#Cc3csc(C)n3)cn2)c1
b: COc1ccc(C#N)cc1-c1ccc(C#Cc2csc(C)n2)cn1
Task: Which of the two items, a and b , has the greater recorded IC50? Mark your answer with the label of the selected entry.
Result: b

* * *

Data export: Ki values recorded with metabotropic glutamate receptor subtype 5 (Rattus norvegicus (Rat)).
measured-metric: Ki (nM)

Cc1nc(C#Cc2ccc(-c3ccccc3F)nc2)cs1	2
Cc1nc(C#Cc2cncc(-c3ccccc3CO)c2)cs1	7
Cc1nc(C#Cc2ccc(-c3cc(C#N)ccc3F)nc2)cs1	12.5
CCOc1ccccc1-c1ccc(C#Cc2csc(C)n2)cn1	2

A: Cc1nc(C#Cc2cnc(N3CCCCC3CO)nc2)cs1 (stereo not drawn)
B: Cc1nc(C#Cc2cnc(-c3ccccc3Cl)nc2)cs1
Task: Which gives the smaller Ki number: A or B ? Kindly state the label of the option you pick.
Result: B

* * *

metabotropic glutamate receptor subtype 5 (Rattus norvegicus (Rat), UniProt P31424) pKi data
Sequence (P31424 21-1203): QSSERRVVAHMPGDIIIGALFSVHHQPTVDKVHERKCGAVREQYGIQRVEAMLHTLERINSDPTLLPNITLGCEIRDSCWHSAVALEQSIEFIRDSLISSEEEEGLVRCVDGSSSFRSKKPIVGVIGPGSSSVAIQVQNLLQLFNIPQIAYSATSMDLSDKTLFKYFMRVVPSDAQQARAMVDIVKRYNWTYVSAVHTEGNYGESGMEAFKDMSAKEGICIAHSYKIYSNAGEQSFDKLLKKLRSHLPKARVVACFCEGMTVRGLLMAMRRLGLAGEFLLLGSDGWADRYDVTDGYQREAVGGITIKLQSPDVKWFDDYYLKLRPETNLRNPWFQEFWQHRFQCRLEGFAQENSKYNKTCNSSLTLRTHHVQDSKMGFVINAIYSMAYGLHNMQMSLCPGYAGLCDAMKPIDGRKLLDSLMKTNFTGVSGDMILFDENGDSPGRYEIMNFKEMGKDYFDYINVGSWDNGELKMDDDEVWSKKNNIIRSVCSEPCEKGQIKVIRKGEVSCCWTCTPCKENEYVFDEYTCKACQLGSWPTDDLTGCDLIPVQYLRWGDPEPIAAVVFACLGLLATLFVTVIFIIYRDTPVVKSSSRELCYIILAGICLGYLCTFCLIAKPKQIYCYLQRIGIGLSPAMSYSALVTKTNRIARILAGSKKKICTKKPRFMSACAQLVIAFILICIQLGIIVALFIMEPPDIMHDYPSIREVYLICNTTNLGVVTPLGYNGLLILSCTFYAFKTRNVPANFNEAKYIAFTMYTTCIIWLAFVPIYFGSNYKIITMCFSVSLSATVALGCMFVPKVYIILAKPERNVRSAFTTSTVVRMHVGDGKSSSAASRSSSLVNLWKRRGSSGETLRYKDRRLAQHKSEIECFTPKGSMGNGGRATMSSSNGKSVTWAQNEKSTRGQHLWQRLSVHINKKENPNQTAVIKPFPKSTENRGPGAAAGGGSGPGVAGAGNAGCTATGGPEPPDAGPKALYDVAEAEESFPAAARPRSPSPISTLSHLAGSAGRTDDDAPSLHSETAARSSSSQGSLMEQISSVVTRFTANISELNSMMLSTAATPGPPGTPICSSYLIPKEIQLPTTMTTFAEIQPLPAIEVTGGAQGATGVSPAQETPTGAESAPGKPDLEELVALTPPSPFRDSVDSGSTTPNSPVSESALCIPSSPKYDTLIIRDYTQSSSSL
Field pKi (float): negative decimal logarithm of the concentration in molar.

Task: Param readout= pKi; system= metabotropic glutamate receptor subtype 5 (Rattus norvegicus (Rat), UniProt P31424); entry= "Cc1nc(C#Cc2ccc(-c3cc(F)cc(C#N)c3)nc2)cs1" ; returns value.
Result: 7.70

Task: Return pKi measured with metabotropic glutamate receptor subtype 5 (Rattus norvegicus (Rat), UniProt P31424) given this compound: "Cc1nc(C#Cc2cncc(Cl)c2)cs1"
Result: 8.40

Task: Form field - read-out: pKi; system: metabotropic glutamate receptor subtype 5 (Rattus norvegicus (Rat), UniProt P31424); submitted item: "Cc1nc(C#Cc2ccc(N3C4CCC3CC4)nc2)cs1"
Result: 8.10

* * *

# target-system: hmGluR5a receptor (Homo sapiens (Human), UniProt P41594)
# Sequence (P41594 other isoform, or with tags, fused parts or gaps): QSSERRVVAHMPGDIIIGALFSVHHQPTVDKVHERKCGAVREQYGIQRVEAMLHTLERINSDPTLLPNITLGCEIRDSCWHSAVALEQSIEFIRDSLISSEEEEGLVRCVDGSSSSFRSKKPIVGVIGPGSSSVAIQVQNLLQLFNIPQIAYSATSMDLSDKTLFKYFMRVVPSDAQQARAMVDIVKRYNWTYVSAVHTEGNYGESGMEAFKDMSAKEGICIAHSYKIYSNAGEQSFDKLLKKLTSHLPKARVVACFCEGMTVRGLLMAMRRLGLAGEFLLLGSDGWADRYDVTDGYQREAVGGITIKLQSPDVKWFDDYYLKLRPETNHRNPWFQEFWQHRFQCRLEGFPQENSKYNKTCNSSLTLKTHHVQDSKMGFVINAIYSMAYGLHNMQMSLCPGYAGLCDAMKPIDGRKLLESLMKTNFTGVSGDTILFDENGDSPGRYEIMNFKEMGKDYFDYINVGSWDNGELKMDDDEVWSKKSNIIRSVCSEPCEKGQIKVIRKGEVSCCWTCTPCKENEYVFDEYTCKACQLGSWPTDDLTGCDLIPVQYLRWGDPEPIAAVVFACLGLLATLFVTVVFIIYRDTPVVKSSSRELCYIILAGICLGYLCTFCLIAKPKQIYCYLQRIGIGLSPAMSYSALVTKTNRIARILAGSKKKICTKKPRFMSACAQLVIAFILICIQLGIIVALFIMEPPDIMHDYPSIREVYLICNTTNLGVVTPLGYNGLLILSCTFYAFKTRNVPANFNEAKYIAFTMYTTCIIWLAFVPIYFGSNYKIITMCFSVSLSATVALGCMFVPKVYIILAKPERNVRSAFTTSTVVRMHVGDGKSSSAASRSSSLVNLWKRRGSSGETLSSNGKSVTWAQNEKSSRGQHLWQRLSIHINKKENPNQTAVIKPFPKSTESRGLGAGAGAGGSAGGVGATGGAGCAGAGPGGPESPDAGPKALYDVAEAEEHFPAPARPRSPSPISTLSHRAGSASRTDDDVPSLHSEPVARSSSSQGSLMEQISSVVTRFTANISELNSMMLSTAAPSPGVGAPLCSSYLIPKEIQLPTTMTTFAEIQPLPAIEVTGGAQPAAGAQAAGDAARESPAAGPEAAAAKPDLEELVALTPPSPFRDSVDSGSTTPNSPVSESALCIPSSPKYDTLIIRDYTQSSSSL
# assay-protocol: Calcium Flux Assay
# condition-set: hmGluR5a/L38-20 cells, glutamate-evoked [Ca2+]i
pIC50: −log10 of the molar value.
measured-metric: pIC50

Cc1nc(C#Cc2ccc(-n3ccc4ccncc43)nc2)cs1	8.31

1: Cc1nc(C#Cc2ccc(-c3cccc4ncccc34)nc2)cs1
2: Cc1nc(C#Cc2ccc(C3CCCC3)nc2)cs1
Task: Out of 1 and 2 , name the one with the higher pIC50. Kindly state the label of the option you pick.
Result: 2

I: Cc1cc(C#N)cc(-c2ccc(C#Cc3csc(C)n3)cn2)c1
II: Cc1nc(C#Cc2cnc(N3CCCCCC3)nc2)cs1
Task: Returns: the argument ( I or II ) having the larger pIC50. Field: selected label. Fill in the label of the entry you choose.
Result: II
(II: 7.96, I: 7.74)

1: Cc1nc(C#Cc2ccc(SC(C)(C)C)nc2)cs1
2: Cc1nc(C#Cc2cnc(-n3ccc4ccncc43)nc2)cs1
3: Cc1nc(C#Cc2ccc(-c3ccccc3F)nc2)cs1
4: Cc1nc(C#Cc2ccc(-c3ccc(F)cc3F)nc2)cs1
Task: Hello, I need these entries ordered by pIC50, highest reading first. Thanks! To answer, write out the labels according to the requested order.
Result: 3, 1, 2, 4
(3: 9.00, 1: 8.77, 2: 8.55, 4: 7.72)

I: Cc1nc(C#Cc2ccc(-c3ccccc3Cl)nc2)cs1
II: Cc1nc(C#Cc2cnc(N3CCCCC3)nc2)cs1
Task: Quick one: lower pIC50, I or II ? Refer to your chosen item by its label in the answer.
Result: I

* * *

# target-system: hmGluR5a receptor (Homo sapiens (Human), UniProt P41594)
# assay-protocol: Calcium Flux Assay
# condition-set: hmGluR5a/L38-20 cells, glutamate-evoked [Ca2+]i
Where a name gives a salt, the structure may show the parent alone.
measured-metric: IC50 (nM)

Answered examples (3):
CC[C@@H](C)Nc1ccc(C#Cc2csc(C)n2)cn1	5
Cc1nc(C#Cc2cnc(C3CCCCC3)nc2)cs1	1
CCC(C)Sc1ccc(C#Cc2csc(C)n2)cn1 (stereo not drawn)	2

a: Cc1nc(C#Cc2ccc(-c3ccc(F)cc3C)nc2)cs1 [Example 9, trifluoroacetate]
b: Cc1nc(C#Cc2ccc(N3CCCC(F)C3)nc2)cs1 (stereo not drawn)
c: Cc1nc(C#Cc2cncc(-c3cccc(C#N)c3)c2)cs1
d: Cc1nc(C#Cc2ccc(-c3ccc(F)c(C)c3)nc2)cs1
Task: List these items ordered by IC50, big to small. Enter labels, ranked according to the request.
Result: d, b, c, a

1: Cc1nc(C#Cc2cnc(O[C@@H](C)c3ccccc3)nc2)cs1
2: Cc1nc(C#Cc2cnc(N3CCCC3C)nc2)cs1 (stereo not drawn)
Task: Hi! Which is lower in terms of IC50, the first one 1 or the second one 2 ? In your reply, give the label of the chosen option.
Result: 2

* * *

# target-system: hmGluR5a receptor (Homo sapiens (Human), UniProt P41594)
# assay-protocol: Calcium Flux Assay
# condition-set: hmGluR5a/L38-20 cells, glutamate-evoked [Ca2+]i
# Experimental: The activity of compounds was examined against the hmGluR5a receptor stably expressed in mouse fibroblast Ltk− cells (the hmGluR5a/L38-20 cell line). See generally Daggett et al., Neuropharmacology 34:871-886 (1995). Receptor activity was detected by changes in intracellular calcium ([Ca^2+]i) measured using the fluorescent calcium-sensitive dye, fura-2. hmGluR5a/L38-20 cells were plated onto 96-well plates, and loaded with 3 µM fura-2 for 1 h. […]
pIC50: −log10 of the molar value.
measured-metric: pIC50

A: Cc1nc(C#Cc2ccc(NC(C)(C)C)nc2)cs1
B: Cc1nc(C#Cc2ccc(-c3cccc(-n4cccn4)c3)nc2)cs1
C: Cc1nc(C#Cc2cncc(Oc3cccnc3)c2)cs1
Task: Sort by pIC50 with smallest numbers at the start of the list. Return value: ordered labels per request.
Result: A, B, C

Ref: patent US8609852B2
